Where do the numbers come from? From ChEMBL document CHEMBL1201862.

Examples of compounds with documented GI50 follow.
System: Malme-3M
Experiment: NCI tumour cell line growth inhibition, 48 h
Activity calls are given as the source filed them. Rule as the data show it: active = GI50 up to about 1.1 µM and inactive = higher.
OUTCOME_MEASURE: GI50

>  <COMPOUND>
COC1=C(N=[N+]=[N-])C(=O)c2ncccc2C1=O

>  <RECORDED_MEASUREMENT>
2.33 µM (inactive)

$$$$
>  <COMPOUND>
COC(=O)N/N=C(\C)C(CN1CCOCC1)C(c1ccccc1)c1cc2ccccc2oc1=O (stereo not drawn)

>  <RECORDED_MEASUREMENT>
62.5 µM (inactive)

$$$$
>  <COMPOUND>
CCCSS[C@H]1NC(=O)[C@H]1NC(=O)COc1ccccc1

>  <RECORDED_MEASUREMENT>
13.8 µM (inactive)

$$$$
>  <COMPOUND>
O=C(Nc1nc(C23CC4CC(CC(C4)C2)C3)cs1)c1c(O)c2ccccc2[nH]c1=O

>  <RECORDED_MEASUREMENT>
> 100 µM (inactive)

$$$$
>  <COMPOUND>
CCCN1CN(C(C(=O)N[C@@H]2C(=O)N3C2SC(C)(C)C3C(=O)O)c2ccc(O)cc2)CSC1=S (stereo partly drawn)

>  <RECORDED_MEASUREMENT>
> 100 µM (inactive)

$$$$
>  <COMPOUND>
Nc1ncnc2ccc(Sc3ccc4ncnc(N)c4c3)cc12

>  <RECORDED_MEASUREMENT>
> 100 µM (inactive)

$$$$
>  <COMPOUND>
COC(=O)C(=O)C(C(=O)C(=O)Nc1ccc(OC)cc1[N+](=O)[O-])c1nc2ccc([N+](=O)[O-])cc2nc1O (stereo not drawn)

>  <RECORDED_MEASUREMENT>
> 100 µM (inactive)

$$$$
>  <COMPOUND>
O=C(CCc1cc(-c2ccccc2)[nH]c(=S)n1)Nc1ccccc1[N+](=O)[O-]

>  <RECORDED_MEASUREMENT>
> 100 µM (inactive)

$$$$
>  <COMPOUND>
CCCCCCCC/C=C\CCCCCCC(F)C(=O)O (stereo not drawn)

>  <RECORDED_MEASUREMENT>
> 12.5 µM (inactive)

$$$$
>  <COMPOUND>
Cc1cc2c(c(C(=O)O)c1C)-c1cccc(F)c1C2=O

>  <RECORDED_MEASUREMENT>
> 100 µM (inactive)

$$$$
>  <COMPOUND>
CC(C)(C)OC(=O)N[C@H]1CC2(C=C(Cl)C(=O)C(Cl)=C2)OC1=O

>  <RECORDED_MEASUREMENT>
11.5 µM (inactive)

$$$$
>  <COMPOUND>
Cc1ccc(S(=O)(=O)c2ccccc2[N+](=O)[O-])cc1

>  <RECORDED_MEASUREMENT>
85.1 µM (inactive)

$$$$
>  <COMPOUND>
O=C(NOC(=O)c1ccc([N+](=O)[O-])cc1)c1ccc(Cl)cc1

>  <RECORDED_MEASUREMENT>
> 100 µM (inactive)

$$$$
>  <COMPOUND>
N#CC(Sc1ccccc1)C(N)=O (stereo not drawn)

>  <RECORDED_MEASUREMENT>
> 100 µM (inactive)

$$$$
>  <COMPOUND>
C1CC[N+]23CCCC[N+]2(C1)CCCC3 (stereo not drawn)

>  <RECORDED_MEASUREMENT>
> 100 µM (inactive)

$$$$
>  <COMPOUND>
CC(C)(C)OC(=O)N/N=C(/N)Cc1ccc(Cl)cc1

>  <RECORDED_MEASUREMENT>
> 100 µM (inactive)

$$$$
>  <COMPOUND>
CCOC(=O)COc1cccc2c1C(=O)CCO2

>  <RECORDED_MEASUREMENT>
> 100 µM (inactive)

$$$$
>  <COMPOUND>
C/C=C/C1(NS(=O)(=O)c2ccc(C)cc2)CCC(C(C)(C)C)CC1 (stereo not drawn)

>  <RECORDED_MEASUREMENT>
22.2 µM (inactive)

$$$$
